meta.source: ChEMBL document CHEMBL3217463

- test protocol: Half life in Wistar rat at 5 mg/kg, po
- Format: ADME, organism-based
- Parameters: dose 5 mg/kg, route oral
- run conditions: Wistar, in vivo
metric: half-life

The measured half-life associated with "Cc1cc(COc2ccc([C@]3(N)CCN([C@H](CC(C)C)C(=O)NO)C3=O)cc2)c2ccccc2n1" reads 520 min

###

pIC50 values recorded for Matrix metalloproteinase-14 (Homo sapiens, UniProt P50281)
Numbers only, as −log10 of the molar value.

{"smiles code": "Cc1cc(COc2ccc([C@]3(N)CCN([C@H](CC(C)C)C(=O)NO)C3=O)cc2)c2ccccc2n1", "pIC50": 6.30}

Next up:
Input "COCCc1cc(COc2ccc([C@]3(N)CCN([C@H](CC(C)C)C(=O)NO)C3=O)cc2)c2ccccc2n1" . Output pIC50: 5.96
